The reported numbers originate from patent US20030105595A1.

system: band b1i0_62.5; test: multi-sample expression analysis, band intensity; format: in vivo; conditions: Pooled, Low dose, 1d
METRIC: band intensity b1i0_62.5
One number for each entry.

Completed entries (count: 4):
> print(dat)
                    smiles.notation     test.system                    metric  reported.result
1              O=NN(CCCl)C(=O)NCCCl  band b1i0_62.5  band intensity b1i0_62.5            69.48
2               S=C=Nc1cccc2ccccc12  band b1i0_62.5  band intensity b1i0_62.5            68.44
3  Cc1cc(C(C)(C)C)c(O)c(C(C)(C)C)c1  band b1i0_62.5  band intensity b1i0_62.5            74.66
4           Nc1ccc(Cc2ccc(N)cc2)cc1  band b1i0_62.5  band intensity b1i0_62.5            63.43

Next compound, please.
Prompt: Endpoint output: band intensity b1i0_62.5 of "CC(=O)[C@@]1(O)CC[C@H]2[C@@H]3C=C(Cl)C4=CC(=O)[C@@H]5C[C@@H]5[C@]4(C)[C@H]3CC[C@@]21C" . Value?
Response: 62.41

---

system: band b1i0_62.5; test: multi-sample expression analysis, band intensity; assay type: in vivo; conditions: Pooled, High dose, 7d
METRIC: band intensity b1i0_62.5
One number for each entry.

Example compounds with recorded band intensity b1i0_62.5:
> print(dat)
                            smiles.notation  reported.result
1                       S=C=Nc1cccc2ccccc12             81.4
2  CC(=O)[C@@]1(O)CC[C@H]2[C@@H]3C=C(Cl)C4=CC(=O)[C@@H]5C[C@@H]5[C@]4(C)[C@H]3CC[C@@]21C            71.82

I'm hoping you can list band intensity b1i0_62.5 for every compound here, please.
1. Nc1ccc(Cc2ccc(N)cc2)cc1
2. Cc1cc(C(C)(C)C)c(O)c(C(C)(C)C)c1

Response:
[71.55, 81.59]

---

system: band b1i0_51.7; experiment: multi-sample expression analysis, band intensity; type: in vivo; details: Pooled, High dose, 1d
METRIC: band intensity b1i0_51.7
Give bare numbers.

Dear reader, for each entry below, please note its band intensity b1i0_51.7.
1. Nc1ccc(Cc2ccc(N)cc2)cc1
2. Cc1cc(C(C)(C)C)c(O)c(C(C)(C)C)c1
3. O=NN(CCCl)C(=O)NCCCl
4. S=C=Nc1cccc2ccccc12
5. CC(=O)[C@@]1(O)CC[C@H]2[C@@H]3C=C(Cl)C4=CC(=O)[C@@H]5C[C@@H]5[C@]4(C)[C@H]3CC[C@@]21C

Response:
[23.55, 24.21, 29.61, 23.54, 35.07]

---

tested on: band b1i0_60.7; assay: multi-sample expression analysis, band intensity; format: in vivo; conditions: Pooled, High dose, 1d
Please use true (1) for band intensity b1i0_60.7 under 70 and false (0) for everything else, ties included.

> print(dat)
                            smiles.notation  qualitative.label
1  CC(=O)[C@@]1(O)CC[C@H]2[C@@H]3C=C(Cl)C4=CC(=O)[C@@H]5C[C@@H]5[C@]4(C)[C@H]3CC[C@@]21C           true (1)

Prompt: Quick check: does "Nc1ccc(Cc2ccc(N)cc2)cc1" have band intensity b1i0_60.7 under 70?
Response: true (1)

Prompt: Record: "O=NN(CCCl)C(=O)NCCCl"
Response: false (0)

Prompt: Next record, please: "S=C=Nc1cccc2ccccc12"
Response: false (0)
